test: NCI Yeast Anticancer Drug Screen. Data for the rad50 strain (AID 155);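 further: 0% = growth of vehicle-only cultures of the same strain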; settings: S. cerevisiae rad50 strain growth inhibition, active compounds read high; at 50.0 µM unless noted
About 79,000 compounds went through this panel and 15% of them were active in at least one assay; those are over-represented in the sample as a whole.
RECORDED METRIC: growth inhibition (%)
Write down the numeric answer in % and omit the unit.

COMPOUND	growth inhibition (%)
CC(C)CCN	2.75
O=C(N/N=C/c1ccc(Cl)cc1)c1cccc([N+](=O)[O-])c1	-1.5
CC(C)C1CCC2C(CCC3C(C)(C(=O)O)CCCC23C)C1 (stereo not drawn)	-2.35
CNC(=O)C(C(=O)NC)c1ccccc1	8.05
Cn1nnnc1NCc1ccccc1	-2.55

// growth inhibition lookup, key: O=C(Nc1ccc(Cl)cc1)C(Cl)C(Cl)c1ccc(Cl)cc1 (stereo not drawn) -15.6

// growth inhibition lookup, key: O=C1OC(c2ccccc2)Cc2ccccc21 (stereo not drawn) -20.2

// growth inhibition lookup, key: Clc1ccc(OCC(COc2ccccc2)Oc2nc(-c3ccccc3)nc(-c3ccccc3)n2)cc1 (stereo not drawn) -14.2

// growth inhibition lookup, key: "CC/C(CC(=O)CCC(=O)Nc1c(C)cccc1C)=N\NC(=O)NN" -19.4

// growth inhibition lookup, key: "C(=Nc1cccc2ccccc12)c1cccs1" -8.95

// growth inhibition lookup, key: "CC(=O)CC(=O)Nc1nc2ccccc2s1" -4.45

// growth inhibition lookup, key: COC1CCC(/C=C(\C#N)C2CCC(C)CC2)CC1 (stereo not drawn) 18.3

// growth inhibition lookup, key: CC12CCC(CC1(Cl)Cl)C2 (stereo not drawn) 9.75
